SYSTEM_UNDER_TEST: T1, zPol theta PD (DNA polymerase theta polymerase domain) (zebrafish, UniProt F1Q4P4 1832-2576)
T1 sequence: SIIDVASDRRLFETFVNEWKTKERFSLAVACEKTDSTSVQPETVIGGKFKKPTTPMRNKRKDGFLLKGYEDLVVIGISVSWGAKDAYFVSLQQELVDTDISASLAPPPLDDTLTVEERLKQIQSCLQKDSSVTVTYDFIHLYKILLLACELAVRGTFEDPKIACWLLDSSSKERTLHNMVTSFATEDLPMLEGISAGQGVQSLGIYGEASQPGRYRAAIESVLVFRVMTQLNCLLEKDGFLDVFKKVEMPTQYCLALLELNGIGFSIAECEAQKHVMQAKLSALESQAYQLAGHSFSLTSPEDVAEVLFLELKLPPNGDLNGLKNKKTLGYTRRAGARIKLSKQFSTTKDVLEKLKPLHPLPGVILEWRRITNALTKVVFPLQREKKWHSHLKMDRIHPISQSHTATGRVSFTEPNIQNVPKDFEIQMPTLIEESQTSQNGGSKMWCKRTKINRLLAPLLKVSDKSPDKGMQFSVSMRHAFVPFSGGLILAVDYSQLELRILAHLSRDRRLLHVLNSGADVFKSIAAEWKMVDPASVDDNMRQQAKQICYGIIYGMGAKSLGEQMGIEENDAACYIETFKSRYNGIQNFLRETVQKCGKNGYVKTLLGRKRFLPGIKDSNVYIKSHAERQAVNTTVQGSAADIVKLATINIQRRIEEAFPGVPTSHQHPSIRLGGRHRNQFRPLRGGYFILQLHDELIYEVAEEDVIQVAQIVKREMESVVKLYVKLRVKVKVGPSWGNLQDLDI
MEASUREMENT_NOTES: EMSA; 10 nM DNA, 0-1000 nM protein; binding buffer (composition not given in the material), 1 h at room temperature, 6% native PAGE
CONDITION_NOTES: protein: recombinant; tags: 6xHis-SUMO, cleaved off (untagged); label: 5'-6-FAM on strand 1 (25-mer primer); primer-template, 22 bp; 5' overhang 18 nt on template, 3 nt unpaired 5' TTT on primer
RECORDED_ENDPOINT: pKd
Please express pKd as -log10 of the molar concentration.

Qu. For the binder 25/40 dsDNA undamaged (dsDNA) DNA 1: TTTGCCTTGACCATGTAACAGAGAG DNA 2: TCTCTTCTCTCACTCACGCTCTCTGTTACATGGTCAAGGC , give its measured pKd value.
Ans. 7.70
